# Test system: HCT-15 colon
# Protocol Text: NCI-60 one-dose screen, 48 h
# Protocol Conditions: 10 µM unless noted
Compounds without any hit were thinned out: in the full panel of roughly 83,000, 20% have a hit. Activity calls are given as the source filed them. The calls were made as follows: active = growth percent below 10; inactive = the rest.
Classes used: label 1 for active, label 0 for inactive

>>> label("COc1ccc(S(=O)(=O)N2CC3(COC3)C2)cc1NC(=O)c1[nH]c(C)c2c1CCCCC2=O")
"label 0"
>>> label("COc1ccc(CCNc2nc3c(c(=O)n(Cc4ccc(Br)cc4)c(=O)n3C)n2C)cc1OC")
"label 0"
>>> label("C#CC(F)(F)[C@]1(O)CC[C@H]2[C@@H]3CCC4=CC(=O)CCC4=C3[C@@H](c3ccc(C(C)=O)cc3)C[C@@]21C")
"label 0"
>>> label("O=C(C(=O)c1ccc2c(c1)OCO2)c1ccc2c(c1)OCO2")
"label 0"
>>> label("CNC(=O)c1cc(Oc2ccc(NC(=O)Nc3ccc(Cl)c(SC)c3)c(F)c2)ccn1")
"label 0"
>>> label("COC(=O)c1ccc(Cn2cnc3c(N)ncnc32)cc1")
"label 0"
>>> label("COc1cc2nc(N3CCCC3)nc(NCc3ccccc3)c2cc1OC")
"label 1"
>>> label("CC(=O)OCCC/C(=C/c1cc2ccccc2c2ccccc12)[N+](=O)[O-]")
"label 1"
>>> label("Cn1cc(-c2nonc2-c2cn(C)c3ccc(F)cc23)c2cc(F)ccc21")
"label 0"
>>> label("CN(Cc1cc(Cl)cc(Cl)c1O)Cc1cc(Cl)cc(Cl)c1O")
"label 0"
>>> label("CCCCC(=O)OCC1OC(n2cnc3c(=S)nc[nH]c32)C(OC(=O)CCCC)C1OC(=O)CCCC (stereo not given)")
"label 0"
>>> label("O=C(CCl)Oc1ccc(-c2ccccc2)c(Br)c1")
"label 0"
>>> label("O=C1c2cc3c(cc2-c2c1c1ccc(F)cc1c(=O)n2C[C@H](O)[C@@H](O)[C@H](O)CO)OCO3")
"label 1"
>>> label("CCOC(=O)c1sc(Nc2ccc(Cl)cc2)nc1C")
"label 0"
>>> label("COc1ccc(/C=C(\\C#N)C(=O)Nc2cccc(Nc3nc(SC)nc(-c4cccc([N+](=O)[O-])c4)c3C#N)c2)cc1OC")
"label 0"
>>> label("COc1ccc(SC2c3ccc(C)cc3Oc3nc(N)c(C#N)c(N)c32)cc1 (stereo not given)")
"label 1"
>>> label("COc1cc2c(cc1O)CC[C@@H]1[C@@H]2CC[C@]2(C)[C@@H](NCCN(C)C)CC[C@@H]12")
"label 1"
>>> label("CC(C)(O)c1cn(CCCCN2C(=O)C(=O)c3ccccc32)nn1")
"label 0"
>>> label("Cc1cc(N2CCN(c3ccnc4cc(Cl)ccc34)CC2)nc(NC2CCCCC2)n1")
"label 1"
>>> label("Nc1n[nH]c2ccc([C@@H]3Nc4ccc5[nH]ncc5c4[C@H]4C5C=CC(C5)[C@@H]34)cc12 (stereo not given in full)")
"label 0"
>>> label("COc1ccc(CN2c3ccccc3Oc3ccccc32)cc1F")
"label 0"
>>> label("CC(=O)O[C@H]1C(=O)[C@@]2(C)[C@H]([C@H](OC(=O)c3ccccc3)[C@]3(O)C[C@H](OC(=O)[C@H](OC(=O)CCC(=O)OC4CCC(S/N=C(N)/N=C(\\N)N(C)C)CC4)[C@@H](NC(=O)c4ccccc4)c4ccccc4)C(C)=C1C3(C)C)[C@]1(OC(C)=O)CO[C@@H]1C[C@@H]2O (stereo not given in full)")
"label 0"
>>> label("CN(C)S(=O)(=O)c1ccc(S(=O)(=O)Nc2cccc(Cl)c2N2CCCCC2)cc1")
"label 0"
>>> label("COc1ccc(CN2c3ccccc3Sc3ccccc32)cc1O")
"label 0"
>>> label("O=C1c2ccccc2C(=O)c2c1ccc1[nH]c(-c3cccs3)nc21")
"label 0"
>>> label("N#CN1CCC[C@H]1C(=O)N1CCc2c(-c3[nH]nc4ncccc34)cccc21")
"label 1"
>>> label("CC(=O)O[C@H]1[C@@H]2OC(=O)C(CSc3ccccc3)[C@@H]2C[C@H]2O[C@]2(C)CC/C=C(\\C)CCC[C@@H]1C (stereo not given in full)")
"label 0"
>>> label("Cn1ccnc1C(=O)/C=C/c1ccc(CC(=O)Nc2ccccc2)cc1")
"label 1"
>>> label("O=C1c2cccc3cccc(c23)C(=O)N1CCCCCN1CCN(CCCCCOc2ccc(-c3nc4ccc(N5CCOCC5)cc4[nH]3)cc2)CC1")
"label 0"
>>> label("COc1cccc2c1C(=O)c1c(O)c3c(c(O)c1C2=O)C[C@](O)(C(=O)CO)C[C@H]3O[C@@H]1C[C@@H](NC(=O)CCCN(C)C2(c3ccc(F)cc3)CC3CCC2C3)[C@H](O)[C@@H](C)O1 (stereo not given in full)")
"label 1"
>>> label("Cc1nn(-c2cc(=O)[nH]c3ccccc23)c(N)c1C#N")
"label 0"
>>> label("c1ccc(-c2c(-c3ccccc3)[n+](Cc3ccc4ccccc4c3)c(-c3ccc(-c4nc5ccccc5s4)cc3)n2Cc2ccc3ccccc3c2)cc1")
"label 1"
>>> label("CCNc1ncnc2c1cnn2C1CCCO1 (stereo not given)")
"label 0"
>>> label("C=C(C)[C@@H]1CC[C@]2(C(=O)OC)CC[C@]3(C)[C@H](CC[C@@H]4[C@@]5(C)C/C(=C/c6ccc(OC)cc6)C(=O)C(C)(C)[C@@H]5CC[C@]43C)[C@@H]12")
"label 0"
>>> label("C=C1C(=O)O[C@H]2[C@H]1CC/C(COC(=O)NCCc1ccc(OC)c(OC)c1)=C\\CC[C@@]1(C)O[C@@H]21")
"label 0"
